tested on: Nucleic Acid; test: Thermal stabilization of human G-quadruplex d[T2G3(T2AG3)3A] DNA assessed as change in transition temperature at 20 uM after 4 hrs by temperature-dependent spectrophotometry in presence of 150 mM K+ ions; format: nucleic-acid assay
Measured Metric: deltaT (°C)

Past entries and their recorded results:
INSERT INTO measurements (compound_string, test_target, measured_metric, measurement) VALUES
  ('O=C1NCc2cccc(c2)CNC(=O)c2coc(n2)-c2csc(n2)-c2cccc(n2)-c2nc(cs2)-c2nc1co2', 'Nucleic Acid', 'deltaT', 0),
  ('NCCc1cc2cc(c1)CNC(=O)c1coc(n1)-c1coc(n1)-c1cccc(n1)-c1nc(co1)-c1nc(co1)C(=O)NC2', 'Nucleic Acid', 'deltaT', 21);

A: CN(C)CCc1cc2cc(c1)CNC(=O)c1coc(n1)-c1coc(n1)-c1cccc(n1)-c1nc(co1)-c1nc(co1)C(=O)NC2
B: O=C1NCc2cccc(c2)CNC(=O)c2coc(n2)-c2coc(n2)-c2cccc(n2)-c2nc(co2)-c2nc1co2
Pick one, A or B : lowest reported deltaT. Refer to your chosen entry by its label in the reply.
B
(B: 7.5 °C, A: 20.5 °C)

// provenance: ChEMBL document CHEMBL1157908
